Test system: SK-MEL-5
Test: NCI tumour cell line growth inhibition, 48 h
Active and inactive are the calls of the source. Cut-off read from the data, not from the text of the source: active = GI50 up to about 1.1 µM and inactive = higher.
Bench note: report the call from true (1) for active, false (0) for inactive

| COMPOUND | ANSWER LABEL |
| --- | --- |
| Cc1ccc(NC(=O)/C(C#N)=C/c2ccccc2)c(C)c1 | false (0) |
| C/C(=N\NC(=S)N1CCN(C)CC1)c1nc2cccnc2[nH]1 | false (0) |
| COc1ccc(-[n+]2nc(S(=O)(=O)O)c(/C=C/c3ccc(N(C)C)cc3)cc2C#N)cc1 | false (0) |

Query: Please let me know the test result on file for COc1ccc(NC(=O)CC(=O)N2N=C(C)C(/N=N/c3ccc(C(=O)O)cc3)C2=O)cc1 (stereo not drawn) .
Response: false (0)

Query: Try this compound next: `Cc1cc(S(=O)(=O)NC2=Nc3cccc(F)c3CN2)c(S)cc1Cl`
Response: false (0)

Query: Continue with `C=C1c2ccccc2N(S(=O)(=O)c2ccc(C)cc2)C12CCCCC2`
Response: false (0)

Query: Next entry: `CC(C)C[C@H](NC(=O)[C@H](CCc1ccccc1)NC(=O)c1ccc2ccccc2n1)B(O)O`
Response: true (1)

Query: Could you do the same for `CCNC(=S)N/N=C1\C(=O)Nc2ccc([N+](=O)[O-])cc21` , please?
Response: false (0)

Query: Do the same for `O=CNNC(=O)CSc1nc2ccc(I)cc2c(=O)n1Cc1ccccc1` please
Response: false (0)

Query: And what about the compound `COc1ccc(-c2c(N)n(-c3cccc(C(=O)O)c3)c(=O)c3cc([N+](=O)[O-])ccc23)cc1` ?
Response: false (0)

Query: Moving on to `N#Cc1ccc(OC(=O)c2ccc(NC(=N)N)cc2)cc1.c1ccncc1`
Response: false (0)

Query: Consider next the compound `CN(CCc1ccccn1)C(=S)N/N=C(\c1ccccc1)c1ccccn1` in the same way.
Response: true (1)

Query: Then what about the compound CSc1ncnc2c1cnn2Cc1cnnn1COCC(O)CO (stereo not drawn) ?
Response: false (0)

* * *

System: U-251
Experiment: NCI tumour cell line growth inhibition, 48 h
The source made the active and inactive calls. No stated cut-off is given here; in the data, active = GI50 up to about 1.1 µM and inactive = higher.
Tick one outcome: true = active, false = inactive

Record excerpt, results attached:
| COMPOUND | ANSWER LABEL |
| --- | --- |
| CCOC(=O)NC(=O)c1cn(CCSCCOC(=O)NCCCCCCNC(=O)OCCSCCn2cc(C(=O)NC(=O)OCC)c(=O)n(C)c2=O)c(=O)n(C)c1=O | false |
| Cn1c(=O)c2c(nc3sc4c(n32)C(=O)c2c(O)ccc(O)c2C4=O)n(C)c1=O | false |
| Cc1c(NC(=S)NN)c(=O)n(-c2ccccc2)n1C | false |
| CC(C(O)c1ccccc1)C(O)(C(F)(F)F)C(F)(F)F (stereo not drawn) | false |

Query: Please share the test call associated with `O=C(NCCN1CCOCC1)c1cn2c(ccc3sc4ccccc4c(=O)c32)n1` .
Response: false

Query: Continue with `Cc1cc2c(=O)[nH]nc(N)c2c(N)n1`
Response: false

Query: Check CC(=O)O[C@H]1CC[C@@]2(C)C(=CC[C@@H]3C2CC[C@]2(C)Nc4c(cnn4-c4ccccc4)CC32)C1 (stereo partly drawn) too.
Response: false

Query: What do you have for `c1ccc(CCNc2ccccn2)nc1` ?
Response: false

Query: Field entry: `O=C(O)CCSCCCN1C(=O)c2ccccc2C1=O`
Response: false

* * *

System: SF-268
Experiment: NCI tumour cell line growth inhibition, 48 h
Calls of active or inactive are those of the source. No stated cut-off is given here; in the data, active = GI50 up to about 1.1 µM and inactive = higher.
Pick from t (active), f (inactive) when you respond.

| COMPOUND | ANSWER LABEL |
| --- | --- |
| O=CNNC(=O)CSc1nc2ccc(I)cc2c(=O)n1Cc1ccccc1 | f |
| CC[C@@]1(O)C[C@H](OC2CC(N(C)C)C(OC3CC(O)C(OC4CCC(=O)C(C)O4)C(C)O3)C(C)O2)c2c(cc3c(c2O)C(=O)c2c(O)ccc(O)c2C3=O)[C@H]1C(=O)OC (stereo partly specified) | t |
| N#C/C(=N\c1ccccc1N(C(=O)c1ccccc1)C(=O)c1ccccc1)c1ccccc1 | f |
| CC(=O)Nc1ccc(Nc2nc(=O)[nH]c(=O)[nH]2)cc1 | f |
| CCN1CCN(c2ccc(Nc3ccnc4ccc5c(nnn5C)c34)cc2)CC1 | f |

# ---- query compound ----
Query: Record request — test call for `O=C1NCC2(CCNCC2)N1c1ccccc1`
Response: f

* * *

For each record, write down the corresponding GI50.
Tested on: RPMI-8226
Experiment: NCI tumour cell line growth inhibition, 48 h
The source made the active and inactive calls. No stated cut-off is given here; in the data, active = GI50 up to about 1.1 µM and inactive = higher. Non-standard residues stand in square brackets, D forms with d. Residues, ends and D or L forms follow the SMILES beside them.

Reference set, count: 2
| COMPOUND | GI50 |
| --- | --- |
| CSCC[C@H](NC(=O)[C@@H](N)CC(N)=O)C(=O)N[C@@H](Cc1c[nH]c2ccccc12)C(=O)N[C@@H](CCC(N)=O)C(=O)N[C@@H](CCC(=O)O)C(=O)N[C@H](C(=O)NCC(=O)N[C@@H](CCCCN)C(=O)N[C@H](C)C(=O)O)C(C)C (H-NMWQEVGK[dA]-OH) | > 100 µM (inactive) |
| CC(C)C[C@H](NC(=O)[C@H](CCc1ccccc1)NC(=O)c1ccc2ccccc2n1)B(O)O | < 0.01 µM (active) |

Record GI50 per entry; entries follow.
1. COc1cc2c(cc1OC(=O)c1cc3ccccc3[nH]1)N=C[C@@H]1CCCN1C2=O
2. CCOC(=O)C(NC(=O)CC)(Nc1ccc(S(=O)(=O)Nc2onc(C)c2C)cc1)C(F)(F)F (centres undefined)

Response:
["0.334 µM (active)", "> 100 µM (inactive)"]

* * *

Tested on: CAKI-1
Test: NCI tumour cell line growth inhibition, 48 h
Calls of active or inactive are those of the source. Rule as the data show it: active = GI50 up to about 1.1 µM and inactive = higher.
Would you kindly list GI50 for each of these compounds?

| COMPOUND | TARGET UNDER TEST | GI50 |
| --- | --- | --- |
| Cc1ccc(C(=O)/C(C#N)=C/Nc2c(C)n(C)n(-c3ccccc3)c2=O)cc1 | CAKI-1 | > 100 µM (inactive) |
| O=C1c2ccccc2C(=O)N1CCSCC(CO)SCCN1C(=O)c2ccccc2C1=O (configuration not stated) | CAKI-1 | > 100 µM (inactive) |
| CCOC(=O)NN1C(=O)C(=P(c2ccccc2)(c2ccccc2)c2ccccc2)C(C(=O)OCC)=C1C | CAKI-1 | > 100 µM (inactive) |
| C/C(=N/O)c1cccc(Nc2nc3ccc(Cl)cc3c3[nH]c4ccccc4c23)c1 | CAKI-1 | 2.24 µM (inactive) |
| O=C1CNc2cc(N3CCOCC3)ccc2N1 | CAKI-1 | > 100 µM (inactive) |
| Cn1c(N)c(/C=C/C(=O)Oc2ccccc2)c(=O)n(C)c1=O | CAKI-1 | 29 µM (inactive) |

Give one value of GI50 per listed compound.
1. O=C1N[C@@H]2c3c(csc3Br)C(=O)[C@@H]2O1
2. Cc1cc(O)c2c(c1)C(=O)c1cc(O)cc(O)c1C2=O
3. Cc1cccc(C(C)(C)C)c1NC(=O)CCc1nnc(S)[nH]1
4. Cc1ccc(F)cc1NC(=O)O/N=C(\Cl)C(C)C
5. O=C1CC(=O)NC(NN2C(=O)/C(=C/C(=O)c3ccco3)N=C2c2ccccc2)=N1
6. COC(=O)Nc1nc2cc(S(=O)(=O)n3nnc4ccccc43)ccc2[nH]1
7. CCSCCCC(=O)O
8. COc1ccc2nc3cc(Cl)ccc3c(NCCC(=O)OCC(O)C(O)C(O[C@H](C)C(=O)NC(C)C(=O)NC(CCC(N)=O)C(=O)OCc3ccccc3)C(C=O)NC(C)=O)c2c1 (some centres not stated)

Response:
1: 20.8 µM (inactive); 2: 17.1 µM (inactive); 3: > 100 µM (inactive); 4: 1.72 µM (inactive); 5: > 100 µM (inactive); 6: 54.2 µM (inactive); 7: > 100 µM (inactive); 8: 20.2 µM (inactive)

Please look at the items below and tell me GI50 for each one, in order.
1. Cc1cc(C#N)c(Nc2c(C)cccc2[N+](=O)[O-])s1
2. Fc1cccc(C2SCc3nc4ccccc4n32)c1F (configuration not stated)
3. COC(OC)C1(c2ccccc2)Oc2ccccc2C1=O (configuration not stated)
4. O=C(Cc1ccccc1)Oc1ccc2c(-c3ccccc3)c(C(=O)Nc3ccc(Cl)cc3)c(=O)oc2c1
5. COC(=O)C(COC(C)=O)NC(=O)/C=C/c1ccc(O)c(OC(C)=O)c1 (configuration not stated)
6. N#CC(C#N)=Cc1ccc(C(O)P(=O)(O)O)cc1 (configuration not stated)

Response:
36.9 µM (inactive)
59.4 µM (inactive)
> 100 µM (inactive)
> 100 µM (inactive)
66.2 µM (inactive)
> 100 µM (inactive)

I would be grateful if you could provide GI50 for each of the following entries.
1. Nc1cc(OCC2CCCCC2)nc(N)n1
2. CCOC(=O)c1ccc(NCc2ccc3nc(OC)c(OC)nc3c2)cc1

Response:
1: > 100 µM (inactive); 2: > 100 µM (inactive)
